Reported values of NanoBRET Fold Response for individual entries
biological target: HTR5A (Homo sapiens, UniProt P47898); construct: purchased Promega (in-house HiBiT-GPCR construct library, NanoBRET); test: NanoBRET screen HiBiT-HTR5A in HEK293; assay type: binding; conditions: HTR5A; tracer 1μM
Sequence (P47898 whole entry): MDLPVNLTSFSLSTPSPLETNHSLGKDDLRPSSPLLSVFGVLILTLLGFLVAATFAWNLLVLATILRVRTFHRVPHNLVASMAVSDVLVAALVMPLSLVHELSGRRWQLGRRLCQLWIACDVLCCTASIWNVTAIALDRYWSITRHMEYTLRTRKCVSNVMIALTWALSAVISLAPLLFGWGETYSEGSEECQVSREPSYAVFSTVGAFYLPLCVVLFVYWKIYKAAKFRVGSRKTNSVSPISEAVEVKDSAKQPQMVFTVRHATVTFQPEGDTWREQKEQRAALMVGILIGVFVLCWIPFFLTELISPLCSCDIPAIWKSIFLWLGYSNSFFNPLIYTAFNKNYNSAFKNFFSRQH
Give the figure only, with no unit attached.

Here is how some compounds turned out for NanoBRET Fold Response.
compound	study-system	NanoBRET Fold Response
CC(C)N(CC[C@H](c1ccccc1)c1cc(CCNC(=O)c2ccc(CNC(=O)CCc3ccc4n3[B-](F)(F)[N+]3=C(c5ccc[nH]5)C=CC3=C4)cc2)ccc1O)C(C)C	HTR5A (Homo sapiens, UniProt P47898)	1.03
COc1ccccc1N1CCN(CCCCN2C(=O)c3ccc(CNC(=O)CCOCCNC(=O)c4ccc(CNC(=O)CCc5ccc6n5[B-](F)(F)[N+]5=C(c7ccc[nH]7)C=CC5=C6)cc4)cc3C2=O)CC1	HTR5A (Homo sapiens, UniProt P47898)	1.06
O=C(CCc1ccc2n1[B-](F)(F)[N+]1=C(c3ccc[nH]3)C=CC1=C2)NCc1ccc(C(=O)NCCOCCC(=O)N[C@@H]2CC[C@@]3(O)[C@H]4Cc5ccc(O)c6c5[C@@]3(CCN4CC3CC3)[C@H]2O6)cc1 [Naltrexone-3-NB590]	HTR5A (Homo sapiens, UniProt P47898)	0.98
O=C(CCOCCOCCOCCOCCNC(=O)CCc1ccc2n1[B-](F)(F)[N+]1=C(c3ccc[nH]3)C=CC1=C2)NCCCN1CCN(C2=Nc3ccccc3Oc3ccc(Cl)cc32)CC1	HTR5A (Homo sapiens, UniProt P47898)	1.32
O=C(CCc1ccc2n1[B-](F)(F)[N+]1=C(c3ccc[nH]3)C=CC1=C2)NCCOCCOCCNC(=O)OCCOCCN1CCN(C2=Nc3ccccc3Sc3ccccc32)CC1	HTR5A (Homo sapiens, UniProt P47898)	0.99

Any idea what its NanoBRET Fold Response is? The compound is `CC(C)N(CC[C@H](c1ccccc1)c1cc(CCNC(=O)CCOCCOCCOCCOCCNC(=O)CCc2ccc3n2[B-](F)(F)[N+]2=C(c4ccc[nH]4)C=CC2=C3)ccc1O)C(C)C`
1.05

Any idea what its NanoBRET Fold Response is? The compound is `N#CN=C(NCCCOc1cccc(CN2CCCCC2)c1)NCCNC(=O)CCOCCOCCOCCOCCNC(=O)CCc1ccc2n1[B-](F)(F)[N+]1=C(c3ccc[nH]3)C=CC1=C2`
0.90

Any idea what its NanoBRET Fold Response is? The compound is `COc1ccccc1N1CCN(CCCCN2C(=O)c3ccc(CNC(=O)CCOCCOCCOCCOCCNC(=O)CCc4ccc5n4[B-](F)(F)[N+]4=C(c6ccc[nH]6)C=CC4=C5)cc3C2=O)CC1`
1.13

Any idea what its NanoBRET Fold Response is? The compound is `CCCn1c(=O)c2[nH]c(-c3ccc(OCC(=O)NCCNC(=O)CCOCCNC(=O)c4ccc(CNC(=O)CCc5ccc6n5[B-](F)(F)[N+]5=C(c7ccc[nH]7)C=CC5=C6)cc4)cc3)nc2n(CCC)c1=O`
0.97

Any idea what its NanoBRET Fold Response is? The compound is Cc1nc2n(c(=O)c1CCN1CCC(c3noc4cc(F)ccc34)CC1)CCCC2OC(=O)NCCOCCOCCOCCOCCNC(=O)CCc1ccc2n1[B-](F)(F)[N+]1=C(c3ccc[nH]3)C=CC1=C2 (centres unmarked)
1.28

Any idea what its NanoBRET Fold Response is? The compound is `Cc1cc2c(s1)Nc1ccccc1N=C2N1CCN(CCCNC(=O)CCOCCOCCOCCOCCNC(=O)CCc2ccc3n2[B-](F)(F)[N+]2=C(c4ccc[nH]4)C=CC2=C3)CC1`
1.03
